This section presents compounds with their documented GI50 values.
- System: SF-539 CNS
- Assay Details: NCI tumour cell line growth inhibition, 48 h

Exercise: Any idea what GI50 was measured for `c1ccc(-c2nc3n(c2-c2ccc4c(c2)OCO4)CCC3)nc1` ?
Solution: 6380 nM

Exercise: Now consider `CCOc1cc(/C=C/C(=O)C(C(=O)/C=C/c2ccc(OC(=O)CNc3nc4ccccc4[nH]3)c(OCC)c2)C(=O)CNc2nc3ccccc3[nH]2)ccc1OC(=O)CNc1nc2ccccc2[nH]1` .
Solution: 1610 nM

Exercise: Now consider `Cc1cc(CCl)c(C)cc1CCl` .
Solution: 1020 nM

Exercise: Now consider `O=C(Nc1cccc2[nH]c(C(F)(F)F)nc12)c1cc(Cl)ccc1Cl` .
Solution: 3070 nM

Exercise: Now consider `ClCc1cccc(Cn2cnc3c(Cl)nc(Cl)nc32)c1` .
Solution: 2200 nM

---

- Tested on: M14 melanoma
- Assay Details: NCI tumour cell line growth inhibition, 48 h
Property: GI50

Query Smiles | Tested Target | GI50
C=C1C(=O)O[C@H]2[C@H]1CC/C(COC(=O)N[C@H]1C[C@H](O[C@H]3C[C@](O)(C(=O)CO)Cc4c(O)c5c(c(O)c43)C(=O)c3c(OC)cccc3C5=O)O[C@@H](C)[C@H]1O)=C\CC[C@@]1(C)O[C@@H]21 | M14 melanoma | 8.36 µM
Cc1cn(-c2cccc(NC(=O)c3ccc(C)c(Nc4nccc(-c5cccnc5)n4)c3)c2)cn1 | M14 melanoma | 2.08 µM
FC(F)(F)c1ccc(-c2nn3ncccc3c2-c2ccnc(Nc3ccc4c(c3)OCCO4)n2)cc1 | M14 melanoma | 8.92 µM

Now consider a different molecule.
Exercise: Any idea what GI50 was measured for `C=C1C(=O)O[C@H]2[C@H]1CC/C(COC(=O)NCc1ccc(Cn3c(=O)sn(CCCCC)c3=O)cc1)=C\CC[C@@]1(C)O[C@@H]21` ?
Solution: 1.89 µM

---

This section presents compounds with their documented GI50 values.
- System: A549 NSCLC
- Assay Details: NCI tumour cell line growth inhibition, 48 h

Exercise: Query the reported GI50 for A549 NSCLC; item: `O=C(c1ccc2ccccc2c1)c1nc2cc(F)ccc2[n+]([O-])c1C(F)(F)F`
Solution: 20.6 µM

Exercise: Now consider `Cn1c(=O)n(C)c2cc(CNCCNc3ccnc4cc(Cl)ccc34)ccc21` .
Solution: 50.3 µM

---

- System: MALME-3M melanoma
- Assay Details: NCI tumour cell line growth inhibition, 48 h
This section presents molecules with their documented GI50 values.

Some solved cases for reference:
Molecule | GI50
CC(=O)OC(C(=O)[O][Sn]([CH3])([CH3])[CH3])c1ccccc1 (centres undefined) | > 100 µM
C/C(=C(/c1ccccc1)c1ccc(OCC(O)CNCCN2CCOCC2)cc1)c1ccccc1 (centres undefined) | 1.62 µM
COc1ccc(C(=O)c2sc3nc(-c4ccccc4OC)ccc3c2N)cc1OC | 3.65 µM
NC(=O)c1cccnc1 | > 100 µM

Exercise: Query the reported GI50 for MALME-3M melanoma; item: `Nc1c(C(=O)c2cccc(C#CCN3CCCCC3)c2)cnn1-c1ccc(F)cc1`
Solution: > 25 µM

Exercise: Now consider `O=C(c1ccc2ccccc2c1)c1nc2cc(F)ccc2[n+]([O-])c1C(F)(F)F` .
Solution: 17.3 µM

Exercise: Now consider CC(NC(=O)Cc1ccc(C(F)(F)P(=O)(OCc2ccc([N+](=O)[O-])o2)N(C)CCCCCl)cc1)c1ccc(OCC2CCCCC2)c(C(N)=O)c1 (centres undefined) .
Solution: 4.62 µM

Exercise: Now consider CC(C)(C)[Si](C)(C)OC1[C@@H](CNC(N)=O)O[C@@H](n2cnc3c(NC(=O)Nc4ccccc4)ncnc32)[C@H]1O[Si](C)(C)C(C)(C)C (some centres undefined) .
Solution: 5.19 µM

Exercise: Now consider `CCOC(=O)c1sc(-c2ccc(OS(=O)(=O)C[C@]34CCC(CC3=O)C4(C)C)c(C=O)c2)nc1C` .
Solution: 1.08 µM

Cited source for all entries: PubChem BioAssay (NCI)
